So I've got a bunch of compounds here, and I need their pIC50 values.
# Test system: BaF3-EGFR^19del/T790M/C797S cells
# experimentalProtocol: Cell proliferation assay (CCK8/SRB)
# reportedConditions: 72 h, read-out: IC50, antiproliferation activity
The scale used: pIC50 is minus the common logarithm of the concentration in molar units.

Reported pIC50 of C=CC(=O)Nc1cc(Nc2nccc(-c3cn(C)c4ccccc34)n2)c(OC)cc1N(C)CCN(C)C [AZD9291, Osimertinib, reference compound] : 5.23

// "CCS(=O)(=O)n1cc(-c2nc(Nc3ccc(N4CCC(N5CCN(C)CC5)CC4)c(OC(C)C)c3)ncc2Cl)c2ccccc21" : pIC50 value = 6.60

Record summary for "COc1cc(N2CCC(N3CCN(C)CC3)CC2)ccc1Nc1ncc(Cl)c(Nc2ccccc2P(C)(C)=O)n1" : reported pIC50 = 6.51

----------
assayReadout: IC50 (µM)
Numeric answer only, unit µM assumed.

The compound CCS(=O)(=O)n1cc(-c2nc(Nc3ccc(N4CCC(N5CCN(C)CC5)CC4)c(OC(C)C)c3)ncc2Cl)c2ccccc21 [HCD3514] , when measured on EGFR^WT (Homo sapiens, UniProt P00533), yielded IC50 of 0.156

----------
# assayedSystem: EGFR^19del/T790M/C797S (Homo sapiens, UniProt P00533, C797S/DEL746-750/T790M)
# Sequence (P00533 with tags, fused parts or gaps DEL746-750/T790M/C797S limits assumed): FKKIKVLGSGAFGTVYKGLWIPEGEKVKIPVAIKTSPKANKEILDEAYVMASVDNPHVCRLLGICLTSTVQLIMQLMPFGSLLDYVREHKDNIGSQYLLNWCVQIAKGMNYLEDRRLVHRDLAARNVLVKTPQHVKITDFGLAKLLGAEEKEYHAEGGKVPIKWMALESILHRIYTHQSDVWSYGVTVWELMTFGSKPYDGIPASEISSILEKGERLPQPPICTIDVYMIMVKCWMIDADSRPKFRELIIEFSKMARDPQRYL
# experimentalProtocol: In vitro kinase assay (ELISA)
# reportedConditions: mean ± SD of three independent experiments, read-out: IC50, kinase inhibitory activity against EGFR^19del/T790M/C797S
assayReadout: IC50 (nM)
A number alone suffices; assume nM.

The molecule listed as CCS(=O)(=O)n1cc(-c2nc(Nc3ccc(N4CCC(N5CCN(C)CC5)CC4)c(OC(C)C)c3)ncc2Cl)c2ccccc21 [HCD3514] shows IC50 equal to 2

----------
# assayedSystem: EGFR^19del/T790M (Homo sapiens, UniProt P00533, DEL746-750/T790M)
# Sequence (P00533 with tags, fused parts or gaps DEL746-750/T790M limits assumed): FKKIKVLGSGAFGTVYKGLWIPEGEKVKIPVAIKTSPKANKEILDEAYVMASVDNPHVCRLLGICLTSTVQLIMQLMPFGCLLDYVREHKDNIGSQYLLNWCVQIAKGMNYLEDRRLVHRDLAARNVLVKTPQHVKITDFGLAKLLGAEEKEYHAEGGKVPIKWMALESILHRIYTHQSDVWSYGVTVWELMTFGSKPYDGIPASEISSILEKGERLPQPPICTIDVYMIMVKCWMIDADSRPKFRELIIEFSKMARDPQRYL
# experimentalProtocol: In vitro kinase assay (ELISA)
# reportedConditions: mean ± SD of three independent experiments, read-out: IC50, kinase inhibitory activity against EGFR^19del/T790M
assayReadout: IC50
Give the number first and the unit second.

Sample "CCS(=O)(=O)n1cc(-c2nc(Nc3ccc(N4CCC(N5CCN(C)CC5)CC4)c(OC(C)C)c3)ncc2Cl)c2ccccc21" ; IC50 observed: 8.9 nM

----------
# assayedSystem: EGFR^L858R/T790M/C797S (Homo sapiens, UniProt P00533, C797S/L858R/T790M)
# Sequence (P00533 712-979 T790M/C797S/L858R limits assumed): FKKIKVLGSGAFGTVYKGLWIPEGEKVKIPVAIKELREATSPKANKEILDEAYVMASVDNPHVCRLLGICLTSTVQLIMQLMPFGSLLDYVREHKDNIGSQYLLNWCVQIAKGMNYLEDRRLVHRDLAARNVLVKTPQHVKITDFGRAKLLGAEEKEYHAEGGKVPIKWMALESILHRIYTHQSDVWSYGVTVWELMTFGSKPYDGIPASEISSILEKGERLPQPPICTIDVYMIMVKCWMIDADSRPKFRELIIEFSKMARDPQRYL
# experimentalProtocol: In vitro kinase assay (ELISA)
# Assay type: biochemical
# reportedConditions: mean ± SD of three independent experiments, read-out: IC50, kinase inhibitory activity against EGFR^L858R/T790M/C797S
assayReadout: pIC50
pIC50 is defined as minus the log10 of a concentration measured in mol/L.

Quick note, pIC50 for "CCS(=O)(=O)n1cc(-c2nc(Nc3ccc(N4CCC(N5CCN(C)CC5)CC4)c(OC(C)C)c3)ncc2Cl)c2ccccc21" landed at 9.00
